Attribution: patent US20210323940A1

test_name: CIMA assay (tetrazolium reduction, cell viability, 72 h)
Assay type: cell-based, human
details: human
reported_endpoint: viability at 72 h, 10 ug/mL (%)
A number alone suffices; assume %.

// field: viability at 72 h, 10 ug/mL; key: CCCCC[C@H](O)[C@H](O)/C=C/[C@@H]1CCCCCCCC(=O)O1 [compound (II), 12R, 13S-Dihydroxy-10-Octadecen-9S-olide] ; value = 84

====

test_name: CIMA assay (tetrazolium reduction, cell viability, 72 h)
Type: cell-based, human
details: human
reported_endpoint: viability at 72 h, 1 ug/mL (%)
A number alone suffices; assume %.

// field: viability at 72 h, 1 ug/mL; key: CCCCC[C@H](O)[C@H](O)/C=C/[C@@H]1CCCCCCCC(=O)O1 [compound (II), 12R, 13S-Dihydroxy-10-Octadecen-9S-olide] ; value = 91

====

test_name: CIMA assay (tetrazolium reduction, cell viability, 72 h)
Format: cell-based, human
details: human
reported_endpoint: viability at 72 h, 50 ug/mL (%)
A number alone suffices; assume %.

// field: viability at 72 h, 50 ug/mL; key: CCCCC[C@H](O)[C@H](O)/C=C/[C@@H]1CCCCCCCC(=O)O1 [compound (II), 12R, 13S-Dihydroxy-10-Octadecen-9S-olide] ; value = 90

====

test_name: CIMA assay (tetrazolium reduction, cell viability, 72 h)
Type: cell-based, human
details: human
reported_endpoint: viability at 72 h, 100 ug/mL (%)
A number alone suffices; assume %.

// field: viability at 72 h, 100 ug/mL; key: CCCCC[C@H](O)[C@H](O)/C=C/[C@@H]1CCCCCCCC(=O)O1 [compound (II), 12R, 13S-Dihydroxy-10-Octadecen-9S-olide] ; value = 17
